Task for the reader: assign each of the following compounds its reported solubility.
Experiment: Aqueous solubility
Type: physicochemical
Conditions: water; 25° C., Conditions A

The examples below pair each entry with its known result.
[
  {
    "compound": "CC(C)C[C@@H](C(=O)N1CCCCC1)[C@H](N)C(=O)NO [Example 3]",
    "solubility": "> 9500 µg/mL"
  },
  {
    "compound": "COc1ccc(CCC[C@@H](C(=O)N2CCOCC2)[C@@H](C(=O)NO)N(C)C)cc1 [Example 19]",
    "solubility": "7500 µg/mL"
  },
  {
    "compound": "CC(C)C[C@@H](C(=O)N1CCCCC1)[C@H](NC(=O)OC(C)(C)C)C(=O)NO [Example 2]",
    "solubility": "> 4500 µg/mL"
  }
]

IN: Supply measured solubility of COc1ccc(S(=O)(=O)N[C@H](C(=O)NO)[C@@H](CC(C)C)C(=O)N2CCCCC2)cc1 [Example 7] in your reply.
OUT: 4000 µg/mL

* * *

Experiment: PK parameters, oral route, cynomolgus monkey
Format: in vivo
Conditions: plasma, 10-15 mg/kg, dose-normalised ratio of oral to i.v. mean AUC, read-out: % F (oral bioavailability)
test.readout: bioavailability (%)
Numbers only, in %.

IN: Supply measured bioavailability of N[C@H](C(=O)NO)[C@@H](CC1CCCC1)C(=O)N1CCN(Cc2ccc3c(c2)OCO3)CC1 [Example 27] in your reply.
OUT: 34

* * *

Assay: PK parameters, oral route, rat
Type: in vivo
Settings: plasma, 10-15 mg/kg, read-out: Cmax
test.readout: Cmax (ng/mL)
One number for each entry, in ng/mL.

The examples below pair each entry with its known result.
[
  {
    "smiles.notation": "Cc1ccc(S(=O)(=O)N[C@H](C(=O)NO)[C@@H](CC(C)C)C(=O)N2CCOCC2)cc1",
    "Cmax (ng/mL)": 2440
  },
  {
    "smiles.notation": "N[C@H](C(=O)NO)[C@@H](CC1CCCC1)C(=O)N1CCCCC1",
    "Cmax (ng/mL)": 5490
  },
  {
    "smiles.notation": "N[C@H](C(=O)NO)[C@@H](CC1CCCC1)C(=O)N1CCN(Cc2ccc3c(c2)OCO3)CC1",
    "Cmax (ng/mL)": 7910
  }
]

Next up:
IN: Supply measured Cmax of `CC(C)C[C@@H](C(=O)N1CCOCC1)[C@H](N)C(=O)NO` in your reply.
OUT: 2120

* * *

Target: Human stromelysin-1-255 (MMP-3) (Homo sapiens, UniProt P08254)
Sequence (P08254 100-255 limits assumed): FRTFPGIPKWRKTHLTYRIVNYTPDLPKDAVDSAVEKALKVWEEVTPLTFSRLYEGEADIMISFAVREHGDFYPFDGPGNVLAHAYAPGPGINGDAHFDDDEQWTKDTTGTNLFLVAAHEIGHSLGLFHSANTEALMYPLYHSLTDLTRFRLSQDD
pKi: −log10 of the molar value.
// bucketize pKi: bucket 1 = under 6, bucket 2 = from 6 up to 7, bucket 3 = 7 and over

[
  {
    "compound": "CN(C)[C@H](C(=O)NO)[C@@H](CC1CCCC1)C(=O)N1CCCCC1 [Example 30]",
    "group.label": "bucket 2"
  }
]

IN: Class (by measured pKi) for CC(C)C[C@@H](C(=O)NC(C1CCCCC1)C1CCCCC1)[C@H](N)C(=O)NO [Example 24]
OUT: bucket 1

IN: Class (by measured pKi) for COc1ccc(CCC[C@@H](C(=O)N2CCOCC2)[C@H](NC(=O)OC(C)(C)C)C(=O)NO)cc1 [Example 15]
OUT: bucket 1

IN: Class (by measured pKi) for CNC(=O)[C@H](Cc1ccccc1)N(C)C(=O)[C@H](CC(C)C)[C@H](N)C(=O)NO [Example 44]
OUT: bucket 2

IN: Class (by measured pKi) for CN(C)[C@H](C(=O)NO)[C@@H](CC1CCCC1)C(=O)N1CCN(Cc2ccc3c(c2)OCO3)CC1 [Example 35]
OUT: bucket 3
